Below, each entry is listed with its recorded TGI.
- Test system: MDA-MB-435
- assay_remarks: NCI tumour cell line growth inhibition, 48 h

Here is how some compounds turned out for TGI.
O=C1C2CC=CCC2C(=O)N1n1c(Cc2ccc(Cl)cc2)n[nH]c1=O (centres undefined) : > 100 µM
O=C(CNc1ccc(Cl)cc1)Nc1ccc(-c2nc3ccccc3s2)cc1 : 16.6 µM

Quick check: TGI of O=C(O)C1C2C=CC(O2)C1C(=O)NCc1ccccn1 (centres undefined) ?
> 100 µM

And the next one, CN=c1nc2sc3c(c2c(NC(=S)NC)s1)CCCC3 ?
> 100 µM

And the next one, COCC1OC(Sc2ccccc2)C(O)C(OC)C1OC (centres undefined) ?
> 100 µM

And the next one, COc1cc(OC)c(-c2ccc(OCc3ccccc3)c3c(OC)cc(C)cc23)c2c1C(C)=N[C@H](C)C2 ?
4.12 µM

And the next one, CCOC(=O)c1c(-c2ccc(OC)cc2)c(C#N)c(=S)n(C2OC(COC(C)=O)C(OC(C)=O)C(OC(C)=O)C2OC(C)=O)c1-c1ccccc1 (centres undefined) ?
> 100 µM

* * *

- Test system: NCI-H460 lung
Parameter call: string, one of active, inactive

Some solved cases for reference:
COc1ccc(-n2cc(-c3cc(OC)c(OC)c(OC)c3)c(C(=O)C(F)(F)F)c2C)cc1 : inactive
COc1ccc(CN2C(=O)/C(=C\C(=O)c3ccc(OCCN4CCCCC4)cc3)c3ccccc32)cc1 : inactive
COc1ccc(C(C)=O)cc1N1C(=O)C2C(C1=O)C1(c3ccccc3)C(=O)C2(c2ccccc2)C(c2ccc(C)cc2)=C1c1ccc(C)cc1 (stereo not given) : inactive
CCCCCCNC(=O)c1cc(NCc2cc(O)ccc2O)ccc1O : inactive

Can you look up the reported call for COc1cc(C2CC(c3cccc(Br)c3)=NN2C(C)=O)cc(OC)c1OC (stereo not given) for me?
active

And the next one, O=C(CNc1ccc(Cl)cc1)Nc1ccc(-c2nc3ccccc3s2)cc1 ?
inactive

And the next one, CN(C)CCCNC(=O)c1cc2[nH]c3c(cnc4ccc([N+](=O)[O-])cc43)c(=O)c2n1C ?
inactive

And the next one, O=C(OC(CNc1cc(=O)n(Cc2ccccc2)c(=O)n1Cc1ccccc1)CN1CCCC1)c1ccccc1 (stereo not given) ?
inactive

And the next one, CCOC(=O)CCCn1c(SC)nc2[nH]cc(-c3ccccc3)c2c1=O ?
inactive

And the next one, N#Cc1c(NN)n(C2OC(CO)C(O)C2O)c2ncnc(N)c12 (stereo not given) ?
active

* * *

Below, each entry is listed with its recorded TGI.
- Test system: OVCAR-5 ovarian
- assay_remarks: NCI tumour cell line growth inhibition, 48 h

Quick check: TGI of COc1ccc(/C=C(/C(=O)N2CCN(c3ccccc3)CC2)c2cc(OC)c(OC)c(OC)c2)cc1O ?
> 100 µM

And the next one, CC(C)(C)CC(C)(C)c1cc2c(O)c(c1)Cc1cc(C(C)(C)CC(C)(C)C)cc(c1O)Cc1cc(C(C)(C)CC(C)(C)C)cc(c1O)Cc1cc(C(C)(C)CC(C)(C)C)cc(c1O)C2 ?
> 100 µM

And the next one, Cc1ccc(Cc2c(=O)[nH]nc3ccccc23)cc1 ?
> 100 µM

* * *

- System: KM12 colon
- assay_remarks: NCI tumour cell line growth inhibition, 48 h; in the data active = GI50 below about 0.43 µM; inactive = the rest
Parameter call: string, one of y for active, n for inactive

Some solved cases for reference:
COc1cc(C2CC(c3cccc(Br)c3)=NN2C(C)=O)cc(OC)c1OC (configuration not stated) : y
O=C(Nc1nc2ccc(C(F)(F)F)cc2s1)c1cc(Cl)ccc1O : n
Cc1ccc(C)c(C2=C(c3cn(C)c4ccccc34)C(=O)NC2=O)c1 : n
C=C1CC[C@@H]2[C@](C)(COC(C)=O)[C@H](OC(C)=O)CC[C@@]2(C)[C@@H]1CC(Sc1ccccc1)C1=CCOC1=O (some centres not stated) : n
C=C(CNCc1ccccc1)c1ccc(C(=O)Nc2ccccc2N)cc1 : n
CCC(C)n1ncn(-c2ccc(N3CCN(c4ccc(OCC5COC(Cn6cncn6)(c6ccc(Cl)cc6Cl)O5)cc4)CC3)cc2)c1=O (configuration not stated) : n

Here's the next entry for you.
Can you look up the reported call for Cn1c2ccccc2c2c3c(c4c5cc(Br)ccc5n(C)c4c21)C(=O)N(O)C3=O for me?
y
